The values you see were collected from patent EP4800013A1.

- TARGET DESC: PARG (Homo sapiens, UniProt Q86W56)
- Construct: made in house
- Sequence (Q86W56 whole entry): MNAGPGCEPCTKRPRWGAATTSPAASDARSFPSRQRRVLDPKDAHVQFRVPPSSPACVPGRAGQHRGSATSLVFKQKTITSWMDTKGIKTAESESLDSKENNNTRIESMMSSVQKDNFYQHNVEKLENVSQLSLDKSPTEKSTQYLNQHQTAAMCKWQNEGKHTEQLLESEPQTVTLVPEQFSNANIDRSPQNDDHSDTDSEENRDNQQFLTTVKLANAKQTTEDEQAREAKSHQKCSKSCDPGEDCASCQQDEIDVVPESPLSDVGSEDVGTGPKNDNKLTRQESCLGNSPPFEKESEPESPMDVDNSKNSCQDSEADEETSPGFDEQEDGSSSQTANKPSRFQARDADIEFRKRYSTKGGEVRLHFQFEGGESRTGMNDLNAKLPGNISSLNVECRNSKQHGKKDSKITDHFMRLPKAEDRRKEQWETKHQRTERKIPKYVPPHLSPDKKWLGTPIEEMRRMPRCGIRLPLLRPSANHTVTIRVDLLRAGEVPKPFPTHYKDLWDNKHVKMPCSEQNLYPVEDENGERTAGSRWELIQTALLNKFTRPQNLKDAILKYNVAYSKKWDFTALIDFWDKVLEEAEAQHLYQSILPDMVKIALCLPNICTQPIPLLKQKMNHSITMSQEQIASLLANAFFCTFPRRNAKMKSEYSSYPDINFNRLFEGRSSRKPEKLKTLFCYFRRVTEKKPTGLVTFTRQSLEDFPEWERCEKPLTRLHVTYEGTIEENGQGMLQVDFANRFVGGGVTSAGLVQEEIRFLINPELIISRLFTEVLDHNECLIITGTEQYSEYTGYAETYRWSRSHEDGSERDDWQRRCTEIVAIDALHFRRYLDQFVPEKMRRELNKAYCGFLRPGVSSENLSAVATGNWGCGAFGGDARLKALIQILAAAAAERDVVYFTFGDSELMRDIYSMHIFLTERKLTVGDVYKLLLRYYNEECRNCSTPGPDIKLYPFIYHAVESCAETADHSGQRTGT
- TEST DETAILS: Enzymatic inhibitory activity against PARG, HTRF assay
- Format: biochemical
- PARTICULARS: HTRF; PARylated PARP1 protein as substrate; 60 minutes at room temperature; read-out: IC50 against PARG enzyme
- Experimental: In this experiment, the enzymatic inhibitory activity of the compounds of the present disclosure against PARG was determined using an HTRF (homogeneous time-resolved fluorescence) assay. HTRF assay reagents were purchased from PerkinElmer (Cat. Nos. 61HISTLB and 610SAXLB). The purified protein was prepared in-house. PARG enzyme reaction buffer: 50 mM Tris (pH 7.4), 0.1 mg/mL BSA, 3 mM EDTA, 0.4 mM EGTA, 1 mM DTT, 50 mM KCl, and 0.01% Tween 20. […]
yes if IC50 is below 7 nM. no if not; exact matches included in no.

| COMPOUND | TARGET DESC | GROUP LABEL |
| --- | --- | --- |
| C[C@H]1CN(c2cc(S(=O)(=O)NC3(C)CC3)cc3c(-c4nnc(C(F)F)s4)c([C@@H]4CCCO4)nn23)C[C@H](C)N1 | PARG (Homo sapiens, UniProt Q86W56) | yes |
| C[C@H]1CN(c2cc(S(=O)(=O)NC3(C)CC3)cc3c2nc(N2CCOCC2)n3-c2nnc(C(F)F)s2)C[C@H](C)N1 [Compound 077V] | PARG (Homo sapiens, UniProt Q86W56) | no |
| C[C@H]1CN(c2cc(S(=O)(=O)NC3(C#N)CC3)cc3c2n2ncnc2n3-c2nnc(C(F)F)s2)C[C@H](C)N1 [Compound 065N] | PARG (Homo sapiens, UniProt Q86W56) | no |
| COC(C)(C)c1nc2n(-c3nnc(C(F)F)s3)c3cc(S(=O)(=O)NC4(C)CC4)cc(N4C[C@H](C)N[C@@H](C)C4)c3n2n1 [Compound 084H] | PARG (Homo sapiens, UniProt Q86W56) | yes |
| CN(C)C(=O)N1CCN(c2cc(S(=O)(=O)NC3(C)CC3)cc3c2ncn3-c2nnc(C(F)F)s2)CC1 | PARG (Homo sapiens, UniProt Q86W56) | no |

Alright, here's another compound for you.
INPUT: Strictly below 7 nM in IC50? C=CCn1c(=O)n(-c2nnc(C(F)F)s2)c2cc(S(=O)(=O)NC3(C#N)CC3)cc(N3CCN(C(=O)C4CC4)CC3)c21 [Compound 067S]
OUTPUT: no
